Attribution: paper PMC9482650

# measured_target: AHNAK2, Q8IVF2
# Sequence (Q8IVF2 108-193): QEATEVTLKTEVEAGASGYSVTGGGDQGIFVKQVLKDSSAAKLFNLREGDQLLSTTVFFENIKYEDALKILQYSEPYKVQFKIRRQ
# assay_text: holdup assay
# Set-up: key: below the threshold = too weak to quantify, mostly under pKd 3.1 to 4
# reported_conditions: plain residues with an end cap or a label only (N-terminal biotin on a linker: ttds)
observation_type: pKd

>>> measured("SSIDLWETAL [SLC15A5, A6NIM6]")
"below the threshold"
>>> measured("PPRQRSETQV [HPV82-E6, Q9IR59]")
"below the threshold"
>>> measured("SHSSKGETAV [FZD7, O75084]")
4.41
>>> measured("KLVIKTETTV [RASSF6, Q6ZTQ3]")
"below the threshold"
>>> measured("PSRDRKETSI [RALBP1, Q15311]")
"below the threshold"
>>> measured("SRSRRRETAL [HPV33-E6, P06427]")
"below the threshold"
